Measured values drawn from ChEMBL document CHEMBL4196091 for this set.

Test system: HEK293
Test Details: Antiproliferative activity against HEK293 cells after 2 days by MTT assay
Type: ADME, cell-based
Reported Conditions: Homo sapiens, HEK293, 48 h
Under this convention, fulfilled denotes IC50 strictly below 6 nM and not fulfilled denotes IC50 at or above 6 nM.

Check out these entries, answers already filled in.
{"columns": ["Line Notation", "Group Label"],
 "data": [
  ["COc1cc2c(c(OC)c1OC)-c1ccc(OC)c(=O)cc1[C@@H](NC(=O)Cc1ccccc1)CC2", "fulfilled"],
  ["COc1cc2c(c(OC)c1OC)-c1ccc(OC)c(=O)cc1[C@@H](NC(=O)c1ccc(Cl)cc1)CC2", "not fulfilled"],
  ["COc1cc2c(c(OC)c1OC)-c1ccc(OC)c(=O)cc1[C@@H](NC(=O)CF)CC2", "not fulfilled"],
  ["COc1cc2c(c(OC)c1OC)-c1ccc(OC)c(=O)cc1[C@@H](NC(=O)c1ccc(C(C)(C)C)cc1)CC2", "not fulfilled"],
  ["COc1cc2c(c(OC)c1OC)-c1ccc(OC)c(=O)cc1[C@@H](NC(=O)CCl)CC2", "fulfilled"]
]}

Query: API: query returns whether the compound falls strictly under 6 nM in IC50. Query: `COc1cc2c(c(OC)c1OC)-c1ccc(OC)c(=O)cc1[C@@H](NC(=O)CBr)CC2`
Result: not fulfilled

Query: For this compound, is IC50 lower than 6 nM? `COc1cc2c(c(OC)c1OC)-c1ccc(OC)c(=O)cc1[C@@H](NC(=O)CC1CCCCC1)CC2`
Result: not fulfilled

Query: Identify whether the compound `COc1cc2c(c(OC)c1OC)-c1ccc(OC)c(=O)cc1[C@@H](NC(=O)c1ccccc1C)CC2` records IC50 below 6 nM.
Result: not fulfilled
